Examples of variants with documented self-cleavage kobs at 10000 uM GlcN6P follow.
B1: glmS ribozyme (parent)
chain: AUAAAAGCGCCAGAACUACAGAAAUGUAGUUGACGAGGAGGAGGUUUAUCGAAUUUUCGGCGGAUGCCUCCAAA

# Variants of: B1
# Experiment summary: self-cleavage kobs at 10000 uM GlcN6P; higher = faster cleavage; RNA array
# Measurement setup: with glucosamine-6-phosphate
Fewer inactive variants are shown than the library holds.
// note: answer is a bare numeric in s⁻¹

Completed entries (count: 4):
{"Mutation annotation": "G29U C67A U69A", "U": "s⁻¹", "self-cleavage kobs at 10000 uM GlcN6P": "6.88e-05"}
{"Mutation annotation": "A42G C70U", "U": "s⁻¹", "self-cleavage kobs at 10000 uM GlcN6P": 0.0178}
{"Mutation annotation": "G41U C71G", "U": "s⁻¹", "self-cleavage kobs at 10000 uM GlcN6P": 0.000102}
{"Mutation annotation": "C11A A15U", "U": "s⁻¹", "self-cleavage kobs at 10000 uM GlcN6P": "5.85e-05"}

Quick one: self-cleavage kobs at 10000 uM GlcN6P for U56G C58U ?
9.06e-05

// repeat for C11A G40A and report
3.6e-05

// repeat for U56C A64G and report
0.000131

// repeat for U55A U65C and report
0.000505

// repeat for A12G G66C and report
8.08e-05

// repeat for A42G U56G and report
0.0334

// repeat for U54A C67A and report
0.00561

// repeat for "A52G" and report
0.0022

// repeat for A15G A33C and report
0.00029

// repeat for A39U C68U and report
0.00694

Every entry's value here was drawn from the supplement of paper PMC7125110.
